# Tested on: SF-268
# ASSAY_EXPLANATION: NCI tumour cell line growth inhibition, 48 h
Active and inactive are the calls of the source. Rule as the data show it: active = GI50 up to about 1.1 µM and inactive = higher.
One label from this list, please: true (1) (active), false (0) (inactive)

COMPOUND: CC(C)=CC1C(C(=O)O)C1(C)C (stereo not given)
ASSIGNED_CLASS: false (0)
--
COMPOUND: CCN1CCN(c2nc3ccccc3nc2C(=O)c2ccc(OC)cc2)CC1
ASSIGNED_CLASS: false (0)
--
COMPOUND: N#Cc1cccc(/C=N/N/C(N)=N/O)c1
ASSIGNED_CLASS: false (0)
--
COMPOUND: CCOC(=O)c1nc2cc(F)cc(F)c2[nH]c1=O
ASSIGNED_CLASS: false (0)
--
COMPOUND: COC(=O)CC[N+]1([O-])CC1
ASSIGNED_CLASS: false (0)
--
COMPOUND: CCC1C(c2cc(OC)c(OC)c(OC)c2)c2cc3c(cc2OC1N1CCCC1)OCO3 (stereo not given)
ASSIGNED_CLASS: false (0)
--
COMPOUND: c1ccc2sc(SCN(C3CCCCC3)C3CCCCC3)nc2c1
ASSIGNED_CLASS: false (0)
--
COMPOUND: CC(=O)Oc1ccc(-c2c(OC(C)=O)c(OC(C)=O)c(-c3ccc(OC(C)=O)c(OC(C)=O)c3)c(OC(C)=O)c2OC(C)=O)cc1
ASSIGNED_CLASS: false (0)

Field: next compound
**Q:** Hi team, can someone confirm the assay call for O=[N+]([O-])c1ccc(/C=N/n2c(CO)nc3ccccc32)o1 ?
**A:** false (0)

* * *

I'd appreciate it if you could supply GI50 values for the items below.
# Tested on: OVCAR-8
# ASSAY_EXPLANATION: NCI tumour cell line growth inhibition, 48 h
Active and inactive are the calls of the source. Rule as the data show it: active = GI50 up to about 1.1 µM and inactive = higher.

COMPOUND: COc1ccc(C[N+]23C(CC[C@H]2c2ccccc2)CC[C@H]3c2ccccc2)cc1 (some centres undefined)
GI50: 22.9 µM (inactive)

// for each compound in input: emit GI50
1. CC(=O)Nc1ccc(C(=O)NN2C(=O)CSC2c2ccc(O)cc2)cc1 (centres undefined)
2. O=C(Oc1ccc(Cl)cc1[N+](=O)[O-])c1ccccc1
3. Cn1cc(NC(=O)Nc2cc(C(=O)Nc3cc(C(=O)Nc4cc(S(=O)(=O)O)c5cc(S(=O)(=O)O)cc(S(=O)(=O)O)c5c4)n(C)c3)n(C)c2)cc1C(=O)Nc1cc(C(=O)Nc2cc(S(=O)(=O)O)c3cc(S(=O)(=O)O)cc(S(=O)(=O)O)c3c2)n(C)c1

**A:**
1. > 100 µM (inactive)
2. > 100 µM (inactive)
3. > 100 µM (inactive)

* * *

# Tested on: NCI/ADR-RES
# ASSAY_EXPLANATION: NCI tumour cell line growth inhibition, 48 h
Calls of active or inactive are those of the source. Cut-off read from the data, not from the text of the source: active = GI50 up to about 1.1 µM and inactive = higher.
One label from this list, please: yes (active), no (inactive)

Sample answers from the record:
COMPOUND: O=C(NC(CS)C(=O)O)c1c2ccccc2nc2ccccc12 (stereo not given)
ASSIGNED_CLASS: no
--
COMPOUND: OC(Cc1cnnc2ccccc12)C(Cl)(Cl)Cl (stereo not given)
ASSIGNED_CLASS: no
--
COMPOUND: CCOC(=O)C1=C(C)NC(=O)NC1c1coc2cc(C)cc(C)c2c1=O (stereo not given)
ASSIGNED_CLASS: no
--
COMPOUND: O=[N+]([O-])c1ccc(/C(=N/c2ccccc2)SS/C(=N\c2ccccc2)c2ccc([N+](=O)[O-])o2)o1
ASSIGNED_CLASS: no

**Q:** Hi team, can someone confirm the assay call for CN(C)/C=C/c1c2c(nc3ccccc13)C(=O)c1cccnc1C2=O ?
**A:** yes

**Q:** Hi team, can someone confirm the assay call for COc1cc(/C=C2/C[C@H]3[C@@H]4CC=C5C[C@@H](OC(C)=O)CC[C@]5(C)[C@H]4CC[C@]3(C)NC2=O)cc(OC)c1OC ?
**A:** no

**Q:** Hi team, can someone confirm the assay call for CC(C)(C)OC(=O)Cn1ncn(NC(=O)Cc2ccccc2)c1=S ?
**A:** no

All figures here come from ChEMBL document CHEMBL1201862.
